B1: RSAD1 (parent)
chain: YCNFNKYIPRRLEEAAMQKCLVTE

- Variants of: B1
- Assay explanation: protein stability index of a GFP-peptide fusion (GPS, HEK-293T) (PSI 1-6); higher = more stable;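 note: lentivirally expressed fusions sorted by FACS into six bins by GFP to DsRed ratio, PSI derived from sequencing read proportions per bin multiplied by bin number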
- Measurement setup: c terminus: a fixed tail appended
Attribute measured: protein stability index
Field format: numeric only.

Briefly, protein stability index measured for E13K : 1.82

Briefly, protein stability index measured for M17G : 1.99

Briefly, protein stability index measured for A16Y : 2.16

Briefly, protein stability index measured for R11A : 3.42

Briefly, protein stability index measured for K19C : 2.08

Briefly, protein stability index measured for N3K : 1.84

Briefly, protein stability index measured for Y1T : 2.38

Briefly, protein stability index measured for C2P : 1.44

Briefly, protein stability index measured for C20W : 2.77

Briefly, protein stability index measured for N3L : 1.66

Briefly, protein stability index measured for R11V : 2.41

Briefly, protein stability index measured for M17I : 2.82
